Sourced from the supplement of paper PMC10567573

B1: CIB1 (parent)
chain: DLSRLVNCLTGEGEDTRLSASEMK

Variants of: B1
Assay: protein stability index of a GFP-peptide fusion (GPS, HEK-293T) (PSI 1-6); higher = more stable;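 further: lentivirally expressed fusions sorted by FACS into six bins by GFP to DsRed ratio, PSI derived from sequencing read proportions per bin multiplied by bin number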
Conditions: c terminus: a fixed tail appended
EXPERIMENTAL READOUT: protein stability index
Write no unit; give the number alone.

Q: // returns reported protein stability index for input D1G
Ans: 3.69

Q: Proceed to E12R
Ans: 2.4

Q: Proceed to M23T
Ans: 3.14

Q: Proceed to E12H
Ans: 2.92

Q: Proceed to T10L
Ans: 2.44

Q: Proceed to R17A
Ans: 3.68

Q: Proceed to G11Y
Ans: 2.67

Q: Proceed to G13A
Ans: 3.62

Q: Proceed to L18A
Ans: 3.34

Q: Proceed to L18H
Ans: 4.09

Q: Proceed to L2N
Ans: 4.22

Q: Proceed to A20E
Ans: 4.11

Q: Proceed to D1T
Ans: 2.06

Q: Proceed to G11K
Ans: 3.49

Q: Proceed to L5Q
Ans: 4.54

Q: Proceed to E14N
Ans: 3.06

Q: Proceed to E22M
Ans: 2.46

Q: Proceed to E12W
Ans: 2.05

Q: Proceed to L18P
Ans: 3.79

Q: Proceed to T10K
Ans: 2.9

Q: Proceed to G13H
Ans: 3.31

Q: Proceed to D1I
Ans: 2.3

Q: Proceed to D1Y
Ans: 2.43

Q: Proceed to R17M
Ans: 3.08

Q: Proceed to C8Q
Ans: 3.95

Q: Proceed to L18G
Ans: 1.4

Q: Proceed to C8L
Ans: 2.21

Q: Proceed to E12Y
Ans: 2.17

Q: Proceed to R17Y
Ans: 2.81

Q: Proceed to S19F
Ans: 4.13

Q: Proceed to L5Y
Ans: 2.27

Q: Proceed to T16N
Ans: 3.22

Q: Proceed to V6I
Ans: 3.25

Q: Proceed to S19G
Ans: 3.56

Q: Proceed to M23N
Ans: 3.46

Q: Proceed to M23V
Ans: 3.17

Q: Proceed to D15M
Ans: 1.61

Q: Proceed to E22F
Ans: 2.21

Q: Proceed to E14T
Ans: 3.41

Q: Proceed to D15P
Ans: 2.62

Q: Proceed to L9D
Ans: 3.23

Q: Proceed to L2H
Ans: 5.29

Q: Proceed to M23H
Ans: 2.71

Q: Proceed to D1L
Ans: 2.04

Q: Proceed to E14R
Ans: 2.34

Q: Proceed to G11M
Ans: 2.84

Q: Proceed to S3L
Ans: 2.2

Q: Proceed to E12I
Ans: 2.38

Q: Proceed to K24Q
Ans: 3.31

Q: Proceed to R4Q
Ans: 2.27

Q: Proceed to L18N
Ans: 3.75

Q: Proceed to R17K
Ans: 2.82

Q: Proceed to C8H
Ans: 2.81

Q: Proceed to S19I
Ans: 2.62

Q: Proceed to G11Q
Ans: 3.03

Q: Proceed to E12C
Ans: 3.46

Q: Proceed to G13M
Ans: 2.76

Q: Proceed to T16V
Ans: 2.8

Q: Proceed to S21F
Ans: 2.36

Q: Proceed to R17D
Ans: 4.12

Q: Proceed to T16F
Ans: 2.07

Q: Proceed to L18Y
Ans: 3.12

Q: Proceed to G13Q
Ans: 2.54

Q: Proceed to M23L
Ans: 3.23

Q: Proceed to G13Y
Ans: 3.02

Q: Proceed to C8E
Ans: 3.42

Q: Proceed to L2S
Ans: 5

Q: Proceed to A20F
Ans: 1.8

Q: Proceed to R17E
Ans: 4.53
